assay: Biodistribution in mammary tumor-bearing rats primed with estradiol; assay type: in vivo, rat; conditions: rat, uterus, iv, 10 uCi/rat, 3 h, read-out: Uterus uptake
attribute measured: tissue uptake at 3 h
Please format your answer as a value with the unit trailing.

IN: Look at this molecule and give its reported tissue uptake at 3 h. CCN(CC)CCOc1ccc(/C(=C(/CCC[131I])c2ccccc2)c2ccccc2)cc1 [^131 I-IODOTAMOXIFEN]
OUT: 0.4 %ID/g

###

assay: in vivo; set-up: species or system rat; settings: rat, muscle, iv; 24 h; read-out: Muscle uptake
attribute measured: tissue uptake at 24 h
Please format your answer as a value with the unit trailing.

IN: Look at this compound and give its reported tissue uptake at 24 h. CCN(CC)CCOc1ccc(/C(=C(/CCC[131I])c2ccccc2)c2ccccc2)cc1
OUT: 0.005 %ID/g
